FYI, the data here is from ChEMBL document CHEMBL3885861.

// values below are reported Ht
Species: Rattus norvegicus
Experiment: Open TG-GATES - Regimen: Daily Repeat
Type: toxicity, organism-based, Sprague-Dawley
Design: regimen Daily Repeat, gender Male, age 6 weeks
Conditions: in vivo, po, 0 mg/kg, […], tissue Blood, route gavage, dose level Control, time 14 day
Entry rule: numbers only, all in %.

Examples with answers:
| compound | Ht / % |
| --- | --- |
| O=C1CN(/N=C/c2ccc([N+](=O)[O-])o2)C(=O)N1 [NITROFURANTOIN] | 41.5 |
| CCOC(=O)C(C)(C)Oc1ccc(Cl)cc1 [CLOFIBRATE] | 41.2 |

Here is another compound to look at.
Give me measured Ht, please, for this compound: C[C@H]1O[C@H](O[C@H]2[C@H](O)[C@@H](O)[C@@H](O[C@H]3[C@H](O)[C@@H](O)C(O)O[C@@H]3CO)O[C@@H]2CO)[C@H](O)[C@@H](O)[C@@H]1N[C@H]1C=C(CO)[C@@H](O)[C@H](O)[C@H]1O (stereo partly drawn) [ACARBOSE]
43.2

* * *

Species: Rattus norvegicus
Test: Open TG-GATES - Regimen: Daily Repeat
Type: toxicity, organism-based, Sprague-Dawley
Design: regimen Daily Repeat, gender Male, age 6 weeks
Conditions: in vivo, po, 0 mg/kg, […], tissue Blood, route gavage, dose level Control, time 28 day
APTT strictly under 20 s means rule met; at 20 s or over means rule not met.

| compound | group |
| --- | --- |
| C=C(C)[C@H]1Cc2c(ccc3c2O[C@@H]2COc4cc(OC)c(OC)cc4[C@@H]2C3=O)O1 | rule met |
| OCCN1CCN(CCCN2c3ccccc3Sc3ccc(C(F)(F)F)cc32)CC1 | rule met |
| C[C@H]1C(=O)O[C@@H]2CCN3CC=C(COC(=O)[C@](C)(O)[C@]1(C)O)[C@H]23 | rule not met |
| Cc1cccc(C)c1OCC(C)N (stereo not given) | rule not met |

Strictly below 20 s: is that where APTT of `O=C1CN(/N=C/c2ccc([N+](=O)[O-])o2)C(=O)N1` sits?
rule not met

* * *

Organism: Rattus norvegicus
Assay: Open TG-GATES - Regimen: Single
Assay type: toxicity, organism-based, Sprague-Dawley
Design: regimen Single, gender Male, age 6 weeks
Conditions: in vivo, po, 0 mg/kg, 24 h, tissue Plasma, route gavage, dose level Control
measure: A/G
Reply briefly: the number, and no unit.

Examples with answers:
| compound | A/G |
| --- | --- |
| C=C(C)[C@H]1Cc2c(ccc3c2O[C@@H]2COc4cc(OC)c(OC)cc4[C@@H]2C3=O)O1 | 2.5 |
| C[C@H]1O[C@H](O[C@H]2[C@H](O)[C@@H](O)[C@@H](O[C@H]3[C@H](O)[C@@H](O)C(O)O[C@@H]3CO)O[C@@H]2CO)[C@H](O)[C@@H](O)[C@@H]1N[C@H]1C=C(CO)[C@@H](O)[C@H](O)[C@H]1O (stereo partly drawn) | 0.9 |
| O=[N+]([O-])c1ccc(O)c([N+](=O)[O-])c1 | 2.4 |
| Cn1cc[nH]c1=S | 1.1 |

Give me measured A/G, please, for this compound: CCOC(=O)C(C)(C)Oc1ccc(Cl)cc1 [CLOFIBRATE]
1.5

Give me measured A/G, please, for this compound: `Cc1ccc2cc3c(ccc4ccccc43)c3c2c1CC3`
1

Give me measured A/G, please, for this compound: Cc1cccc(C)c1OCC(C)N (stereo not drawn)
1.3

Give me measured A/G, please, for this compound: `C[C@H]1C(=O)O[C@@H]2CCN3CC=C(COC(=O)[C@](C)(O)[C@]1(C)O)[C@H]23`
1.3

* * *

Organism: Rattus norvegicus
Assay: Open TG-GATES - Regimen: Daily Repeat
Assay type: toxicity, organism-based, Sprague-Dawley
Design: regimen Daily Repeat, gender Male, age 6 weeks
Details: in vivo, po, 0 mg/kg, […], tissue Plasma, route gavage, dose level Control, time 7 day
LDH strictly under 100 IU/L means yes (1); at 100 IU/L or over means no (0).

Observe how each entry below is paired with its result.
| molecule | group |
| --- | --- |
| OCCN1CCN(CCCN2c3ccccc3Sc3ccc(C(F)(F)F)cc32)CC1 | yes (1) |
| C[C@H]1C(=O)O[C@@H]2CCN3CC=C(COC(=O)[C@](C)(O)[C@]1(C)O)[C@H]23 | no (0) |
| O=C1CN(/N=C/c2ccc([N+](=O)[O-])o2)C(=O)N1 | no (0) |
| C[C@H]1O[C@H](O[C@H]2[C@H](O)[C@@H](O)[C@@H](O[C@H]3[C@H](O)[C@@H](O)C(O)O[C@@H]3CO)O[C@@H]2CO)[C@H](O)[C@@H](O)[C@@H]1N[C@H]1C=C(CO)[C@@H](O)[C@H](O)[C@H]1O (some centres undefined) | yes (1) |
| CCOC(=O)C(C)(C)Oc1ccc(Cl)cc1 [CLOFIBRATE] | no (0) |
| Cc1cccc(C)c1OCC(C)N (centres undefined) | no (0) |
| C=C(C)[C@H]1Cc2c(ccc3c2O[C@@H]2COc4cc(OC)c(OC)cc4[C@@H]2C3=O)O1 | yes (1) |
| O=[N+]([O-])c1ccc(O)c([N+](=O)[O-])c1 | no (0) |

Now consider the entry below.
Strictly below 100 IU/L: is that where LDH of `Cn1cc[nH]c1=S` sits?
no (0)

* * *

Species on record: Rattus norvegicus
Test: Open TG-GATES - Regimen: Daily Repeat
Format: toxicity, organism-based, Sprague-Dawley
Design: regimen Daily Repeat, gender Male, age 6 weeks
Conditions: in vivo, po, 0 mg/kg, […], tissue Blood, route gavage, dose level Control, time 28 day
// values below are reported RBC
Don't forget the unit after the number, please.

Examples with answers:
| compound | RBC |
| --- | --- |
| O=C1CN(/N=C/c2ccc([N+](=O)[O-])o2)C(=O)N1 [NITROFURANTOIN] | 757.4 x10_4/ul |
| OCCN1CCN(CCCN2c3ccccc3Sc3ccc(C(F)(F)F)cc32)CC1 [FLUPHENAZINE] | 774 x10_4/ul |

Give me measured RBC, please, for this compound: Cn1cc[nH]c1=S [METHIMAZOLE]
785.4 x10_4/ul

Give me measured RBC, please, for this compound: C[C@H]1O[C@H](O[C@H]2[C@H](O)[C@@H](O)[C@@H](O[C@H]3[C@H](O)[C@@H](O)C(O)O[C@@H]3CO)O[C@@H]2CO)[C@H](O)[C@@H](O)[C@@H]1N[C@H]1C=C(CO)[C@@H](O)[C@H](O)[C@H]1O (some centres undefined) [ACARBOSE]
799.4 x10_4/ul

Give me measured RBC, please, for this compound: C[C@H]1C(=O)O[C@@H]2CCN3CC=C(COC(=O)[C@](C)(O)[C@]1(C)O)[C@H]23 [MONOCROTALINE]
744.4 x10_4/ul

Give me measured RBC, please, for this compound: C=C(C)[C@H]1Cc2c(ccc3c2O[C@@H]2COc4cc(OC)c(OC)cc4[C@@H]2C3=O)O1 [ROTENONE]
758.8 x10_4/ul

Give me measured RBC, please, for this compound: Cc1cccc(C)c1OCC(C)N (centres undefined) [MEXILETINE]
774.2 x10_4/ul

Give me measured RBC, please, for this compound: O=[N+]([O-])c1ccc(O)c([N+](=O)[O-])c1 [2,4-DINITROPHENOL]
754.6 x10_4/ul

Give me measured RBC, please, for this compound: CCOC(=O)C(C)(C)Oc1ccc(Cl)cc1 [CLOFIBRATE]
786.6 x10_4/ul

* * *

// values below are reported Ret
Species: Rattus norvegicus
Test: Open TG-GATES - Regimen: Daily Repeat
Assay type: toxicity, organism-based, Sprague-Dawley
Design: regimen Daily Repeat, gender Male, age 6 weeks
Settings: in vivo, po, 0 mg/kg, 72 h, tissue Blood, route gavage, dose level Control, time 3 day
Entry rule: numbers only, all in %.

| molecule | recorded-result |
| --- | --- |
| C[C@H]1C(=O)O[C@@H]2CCN3CC=C(COC(=O)[C@](C)(O)[C@]1(C)O)[C@H]23 | 6.9 |
| O=[N+]([O-])c1ccc(O)c([N+](=O)[O-])c1 | 6 |
| CCOC(=O)C(C)(C)Oc1ccc(Cl)cc1 [CLOFIBRATE] | 5.4 |
| O=C1CN(/N=C/c2ccc([N+](=O)[O-])o2)C(=O)N1 | 6.3 |
| OCCN1CCN(CCCN2c3ccccc3Sc3ccc(C(F)(F)F)cc32)CC1 | 6.2 |
| C=C(C)[C@H]1Cc2c(ccc3c2O[C@@H]2COc4cc(OC)c(OC)cc4[C@@H]2C3=O)O1 | 6.1 |
| Cc1cccc(C)c1OCC(C)N (centres undefined) | 6.3 |
| C[C@H]1O[C@H](O[C@H]2[C@H](O)[C@@H](O)[C@@H](O[C@H]3[C@H](O)[C@@H](O)C(O)O[C@@H]3CO)O[C@@H]2CO)[C@H](O)[C@@H](O)[C@@H]1N[C@H]1C=C(CO)[C@@H](O)[C@H](O)[C@H]1O (some centres undefined) | 7 |

Give me measured Ret, please, for this molecule: `Cn1cc[nH]c1=S`
6.7
